src = PubChem BioAssay AID485364

Biological target: Schistosoma mansoni thioredoxin glutathione reductase (TGR)
Experiment: qHTS Assay for the Inhibitors of Schistosoma Mansoni Peroxiredoxins; note: nearly all actives have a fitted effect of over 60% in size
Settings: purified TGR, DTNB reduction, TNB absorbance 405 nm; series mostly up to 114 µM
Screen size: about 360,000 compounds; about 11,000 (3.1%) were called active. About 4% were inconclusive and are not listed. Calls come from the whole dose curve; as a rule, active = well fitted inhibition curve with a large enough effect; inconclusive = small, poorly fitted or top-dose-only effect; inactive = no such curve, though single readings can be large or run the other way. The list comes from a sample in which actives are over-represented; it also holds close analogues and randomly drawn compounds.
Could you please pick one outcome from this set? label 1 for active, label 0 for inactive

molecule="Cc1ccccc1C(CC(=O)c1cccs1)C(C#N)C#N (stereo not given)" label_value="label 1"
molecule=COc1ccccc1OCC(=O)OCc1cc(-c2ccco2)on1 label_value="label 1"
molecule=CCc1cccc(C)c1NC(=O)COC(=O)CNC(=O)c1cccs1 label_value="label 0"

Query: Status in this test for `CCCOC(=O)c1c(NC(=O)c2cc3nc(-c4ccc(OC)cc4)cc(C(F)(F)F)n3n2)sc2c1CCCC2` ?
Reply: label 0

Query: `COc1ccc(OC)c(CNC(=O)CN2C(=O)CCn3nc(-c4cn(C)c5ccccc45)cc32)c1` , same question.
Reply: label 0

* * *

Biological target: Schistosoma mansoni thioredoxin glutathione reductase (TGR) (UniProt Q962Y6)
Assay: qHTS Assay for the Inhibitors of Schistosoma Mansoni Peroxiredoxins; note: nearly all actives have a fitted effect of over 60% in size; note: potency is the fitted concentration of half-maximal effect
Details: purified TGR, DTNB reduction, TNB absorbance 405 nm; series mostly up to 114 µM
Out of some 360,000 compounds screened, about 11,000 (3.1%) were called active. Roughly 4% stayed inconclusive and do not appear here. Shown is part of a subset that was picked to be rich in actives.
measured.endpoint: Potency

compound=COc1cc(OC)c(OC)cc1/C=C/c1nc2cc3ccccc3cc2c(=O)n1-c1ccc(F)c(Cl)c1 result=inactive
compound=O=C(O)c1ccccc1NC(=O)c1ccccc1-c1ccccc1C(=O)O result=inactive
compound=Cc1c(-c2ccccc2)nc(N)c(C#N)c1-c1cccs1 result=inactive
compound="Cc1ccc2nc(SCC(=O)N3CC(C)OC(C)C3)nc(=O)n2c1 (stereo unspecified)" result=inactive
compound=COc1ccc(N(C)C(=O)C2CCN(S(=O)(=O)c3cc(Br)cc4c3N(C(C)=O)CC4)CC2)cc1 result=inactive

Query: Quick one: Potency of `O=C(NC(=S)Nc1ccccc1C(=O)O)c1ccc(-c2ccc(Br)cc2)o1` ?
Reply: 3.55 µM (active)

Query: `Cc1ccc(-c2nn3c(=O)cc(CN4CCN(C(=O)Nc5cccc(C(F)(F)F)c5)CC4)nc3s2)cc1` , same question.
Reply: inactive

Query: `Cc1ccc(Nc2c(-c3ccc(N(C)C)cc3)nc3nc[nH]n23)cc1` , same question.
Reply: inactive

Query: `O=C(OCC(=O)c1c[nH]c2ccccc12)c1cccc(O)c1` , same question.
Reply: inactive

Query: `Cc1ccc2nc(SCC(=O)N3CCN(c4ccccc4)CC3)nc(=O)n2c1` , same question.
Reply: 50.1 µM (active)

Query: O=C(NCc1ccco1)C(c1ccncc1)N(C(=O)Cn1nnc2ccccc21)c1ccccc1 (stereo unspecified) , same question.
Reply: inactive

Query: `NC(=O)CSc1c[nH]c2ccccc12` , same question.
Reply: inactive

Query: `O=C(Nc1ccc(C(=O)OCc2cc(=O)n3nc(C4CC4)sc3n2)cc1)c1ccc(F)cc1` , same question.
Reply: inactive

* * *

Molecular target: Schistosoma mansoni thioredoxin glutathione reductase (TGR) (UniProt Q962Y6)
Test: qHTS Assay for the Inhibitors of Schistosoma Mansoni Peroxiredoxins; note: nearly all actives have a fitted effect of over 60% in size
Settings: purified TGR, DTNB reduction, TNB absorbance 405 nm; series mostly up to 114 µM
Among all 360,000 compounds or so, about 11,000 (3.1%) were called active. About 4% were inconclusive and are not listed. Calls come from the whole dose curve; as a rule, active = well fitted inhibition curve with a large enough effect; inconclusive = small, poorly fitted or top-dose-only effect; inactive = no such curve, though single readings can be large or run the other way. The entries come from a sample that favours actives as a whole.
Could you please pick one outcome from this set? y = active, n = inactive

Take a look at these entries with their results.
molecule=COc1cc(Br)cc(/C=N/c2ncn[nH]2)c1O target="Schistosoma mansoni thioredoxin glutathione reductase (TGR) (UniProt Q962Y6)" label_value=n
molecule=Oc1c(Cl)cc(Cl)cc1/C=N/c1ncn[nH]1 target="Schistosoma mansoni thioredoxin glutathione reductase (TGR) (UniProt Q962Y6)" label_value=y
molecule="CN1CCN(C(CNC(=O)c2ccccc2F)c2ccc3c(c2)OCO3)CC1 (stereo not given)" target="Schistosoma mansoni thioredoxin glutathione reductase (TGR) (UniProt Q962Y6)" label_value=n
molecule=O=C(Nc1ccc(F)cc1F)c1ccc2c(=O)n3c(nc2c1)CCCCC3 target="Schistosoma mansoni thioredoxin glutathione reductase (TGR) (UniProt Q962Y6)" label_value=n
molecule="O=C(CC(Cc1ccccc1)C(=O)O)NCCc1ccc2c(c1)OCO2 (stereo not given)" target="Schistosoma mansoni thioredoxin glutathione reductase (TGR) (UniProt Q962Y6)" label_value=n

Query: Status in this test for `CSc1ccc(CCNC(=O)c2cnn(-c3ccccc3)c2-n2cccc2)cc1` ?
Reply: n

Query: `CCOc1cccc(C(=O)Nc2nnc(S(=O)(=O)N(C)c3ccc(C)cc3)s2)c1` , same question.
Reply: n

Query: `O=C(CCNS(=O)(=O)c1ccccc1C(F)(F)F)NCc1ccc2c(c1)OCO2` , same question.
Reply: n

Query: `COc1cc(OC)c(N(C)C(=O)c2cc3c(=O)oc4ccccc4c3s2)cc1Cl` , same question.
Reply: n

Query: `Cc1[nH][nH]c(=O)c1C(c1ccc(-c2ccc(Cl)cc2)o1)c1c(C)[nH][nH]c1=O` , same question.
Reply: y

* * *

Target: Schistosoma mansoni thioredoxin glutathione reductase (TGR)
Test: qHTS Assay for the Inhibitors of Schistosoma Mansoni Peroxiredoxins; note: nearly all actives have a fitted effect of over 60% in size; note: potency is the fitted concentration of half-maximal effect
Settings: purified TGR, DTNB reduction, TNB absorbance 405 nm; series mostly up to 114 µM
Description: Schistosomiasis is a major neglected tropical disease that currently affects over 200 million. It is caused by different species of flatworms, such as Schistosoma mansoni. […] In addition, the fluorescence assay was also subject to fluorescence interference from compound library members. […] The assay followed the reduction of 5, 5'-dithiobis (2-nitrobenzoic acid) (DTNB) (Ellman's reagent) by NADPH and measured the increase in absorbance at 412 nm of the reaction product, TNB. […]
About 11,000 (3.1%) of roughly 360,000 compounds were called active. Not shown: some 4% with an inconclusive outcome. The sample as a whole holds a higher share of actives than the screen did.
measured.endpoint: Potency

The following compounds have reported results that may help.
compound=N#Cc1ccccc1Cn1cnc2nc3c(cc2c1=O)CCCC3 measured_endpoint=Potency result=inactive
compound="CCC(=O)N1N=C(c2ccc(OC)cc2)CC1c1cn(-c2ccccc2)nc1-c1cccs1 (stereo unspecified)" measured_endpoint=Potency result=inactive
compound=O=C(CCCN1C(=O)/C(=C/c2cccs2)SC1=S)Nc1ccc(O)cc1 measured_endpoint=Potency result=inactive
compound=O=[N+]([O-])c1cc(C(F)(F)F)ccc1NN=C1CCCC1 measured_endpoint=Potency result=inactive

Query: Quick one: Potency of O=C(Nc1ccccc1)O/N=C1\CCCCC1c1ccc([N+](=O)[O-])cc1[N+](=O)[O-] (stereo unspecified) ?
Reply: inactive

Query: Cc1noc(C)c1C(=O)NCC1COc2ccccc2O1 (stereo unspecified) , same question.
Reply: inactive

Query: O=C1C(=O)N(CC2COc3ccccc3O2)c2ccccc21 (stereo unspecified) , same question.
Reply: inactive

Query: Cc1cc(C(=O)CCl)c(C)n1CC1COc2ccccc2O1 (stereo unspecified) , same question.
Reply: 10 µM (active)

Query: `COc1ccc(/C=C2/SC(=O)N(CCCCCC(=O)Nc3ccccc3C(=O)O)C2=S)cc1` , same question.
Reply: inactive

Query: O=C(Nc1nnc(C2CC(=O)N(c3ccc(Cl)cc3)C2)s1)c1ccco1 (stereo unspecified) , same question.
Reply: inactive

Query: `Cc1ccc(Nc2c(-c3ccc(C)s3)nc3ccccn23)cc1` , same question.
Reply: inactive

* * *

Biological target: Schistosoma mansoni thioredoxin glutathione reductase (TGR)
Test: qHTS Assay for the Inhibitors of Schistosoma Mansoni Peroxiredoxins; note: nearly all actives have a fitted effect of over 60% in size
Details: purified TGR, DTNB reduction, TNB absorbance 405 nm; series mostly up to 114 µM
About 11,000 (3.1%) of roughly 360,000 compounds were called active. Inconclusive results (about 4%) are left out. Calls come from the whole dose curve; as a rule, active = well fitted inhibition curve with a large enough effect; inconclusive = small, poorly fitted or top-dose-only effect; inactive = no such curve, though single readings can be large or run the other way. The sample as a whole holds a higher share of actives than the screen did.
Could you please pick one outcome from this set? 1 (yes) (active), 0 (no) (inactive)

Take a look at these entries with their results.
molecule="CCC1(C)CC(=O)c2c(ccc3oc(C(=O)Nc4ccc(C(C)=O)cc4)c(C)c23)O1 (stereo unspecified)" label_value="0 (no)"
molecule=COc1ccc(-n2c(SCC(=O)Nc3ccc(Cl)c(C)c3)nc3n[nH]c(C)c3c2=N)cc1 label_value="0 (no)"
molecule=O=C(NCC12CC3CC(CC(C3)C1)C2)c1cc2nc(-c3ccccc3)cc(C(F)(F)F)n2n1 label_value="0 (no)"

Query: Status in this test for `O=C(Nc1ncc2c(n1)-c1ccccc1OC2)c1ccc(Cl)cc1` ?
Reply: 0 (no)

Query: COc1ccc(C2CC(c3cccs3)=NN2c2ccc(F)cc2)cc1OC (stereo unspecified) , same question.
Reply: 1 (yes)

Query: `Cc1nnc(N2CCC(C(=O)Nc3ccc(F)cc3)CC2)c2nn(-c3ccc(Cl)cc3)c(C)c12` , same question.
Reply: 0 (no)

Query: `CCOC(=O)c1c(-c2ccc(-c3ccccc3)cc2)csc1NC(=O)CCC(=O)O` , same question.
Reply: 0 (no)

Query: CC1CN(C(=O)N2CCC(C(=O)NCc3ccco3)CC2)c2cc(Cl)ccc2O1 (stereo unspecified) , same question.
Reply: 0 (no)

Query: `NC(=O)CSc1oc(-c2cccs2)nc1S(=O)(=O)c1ccccc1` , same question.
Reply: 0 (no)

Query: `CCCCS(=O)(=O)c1oc(-c2cccs2)nc1S(=O)(=O)c1ccccc1` , same question.
Reply: 1 (yes)

Query: `O=C(NC1CCCCC1)c1ccc(Cn2c(SCc3ccccc3)nc3cccnc32)cc1` , same question.
Reply: 0 (no)

Query: `CCOC(=O)c1c(SCC(=O)Nc2cccc(C)c2C)nc(=O)[nH]c1C` , same question.
Reply: 0 (no)
